System under test: UniProt P20292
Sequence (P20292 whole entry): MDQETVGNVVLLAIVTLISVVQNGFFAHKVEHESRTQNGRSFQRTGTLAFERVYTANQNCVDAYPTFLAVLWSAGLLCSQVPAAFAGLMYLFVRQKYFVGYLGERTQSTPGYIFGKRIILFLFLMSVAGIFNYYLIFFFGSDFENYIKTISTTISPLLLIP
Assay comment: Inhibition of FLAP in A23187-stimulated human neutrophils assessed as reduction in 5-LO product formation preincubated for 15 mins followed by A23187 and arachidonic acid addition and measured after 10 mins by UV based RP-HPLC analysis
Reported pIC50 by item:
Would you please state pIC50, meaning minus log10 of the concentration in mol/L, as a bare number?

Query string: Quick one: give measured pIC50 for "C=C(Cc1ccc(-c2cnc(N)nc2)cc1)c1nc2cc(C#N)ccc2n1Cc1ccccc1Cl"
Result string: 6.43

Query string: Quick one: give measured pIC50 for CC(C)Cc1ccc(C(C)c2nc3cc(-c4ccc(C(=O)O)cc4)ccc3n2Cc2ccccc2Cl)cc1 (centres undefined)
Result string: 7.40

Each recorded value in this set is attributed to ChEMBL document CHEMBL4229367.
